Species on record: Mus musculus
ASSAY_PROCEDURE: Evaluated for the spontaneous motor activity in mice and the mean total activity (MTA) was reported; Expressed as counts/90 min/3 mice
Assay type: functional
READOUT_LABEL: MTA
Give the figure only, with no unit attached.

MOLECULE	MTA
Cl.NC1C=Cc2ccccc2C1 (single isomer, unassigned; (-))	8566
C[C@H](N)Cc1ccccc1	14356
CC(N)Cc1ccccc1.COC(=O)C(C)(N)Cc1ccc(O)cc1 (centres undefined)	5144

Consider now this further molecule.
Looking up COC(=O)C(C)(N)Cc1ccc(O)cc1.NC1C=Cc2ccccc2C1 (centres undefined) , I see its MTA listed as 3491
